// values below are reported Population Membrane Permeable-Phenotype (%)
Tested on: U2OS
Test: Multiplex assay against U2OS
Type: toxicity, cell-based
Assay Conditions: human, 48 h, 10 µM, compound concentration 10 uM, replicate 2
Numbers only here, please. The scale is %.

Record excerpt, results attached:
CN1CCCC(n2nc(Cc3ccc(Cl)cc3)c3ccccc3c2=O)CC1.Cl (configuration not stated) [AZELASTINE HYDROCHLORIDE]: 98
Cc1c(-c2ccc(O)cc2)n(Cc2ccc(OCCN3CCCCCC3)cc2)c2ccc(O)cc12 [BAZEDOXIFENE]: 92
OC1(c2ccc(Cl)cc2)CCN(Cc2c[nH]c3ccccc23)CC1: 75
CN1CCN(c2ccc(OC(F)(F)F)c(Nc3ncc4c(n3)-c3c(c(C(N)=O)nn3CCO)CC4)c2)CC1 [ONVANSERTIB]: 28
CN(C)CC#Cc1ccc(OCCCc2sc(N3CCc4cccc(C(=O)Nc5nc6ccccc6s5)c4C3)nc2C(=O)O)c(F)c1 [A-1155463]: 57
COc1cc(-n2cnc3cc(-c4ccc(Cl)cc4)sc3c2=O)ccc1OCCN1CCCC1: 56

Enquiry: Name the recorded Population Membrane Permeable-Phenotype (%) for CN1CCN(CCOc2cc(OC3CCOCC3)c3c(Nc4c(Cl)ccc5c4OCO5)ncnc3c2)CC1 [SARACATINIB] .
Return: 48

Enquiry: Name the recorded Population Membrane Permeable-Phenotype (%) for CN1CCC[C@@H]1CCO[C@](C)(c1ccccc1)c1ccc(Cl)cc1.O=C(O)/C=C/C(=O)O [CLEMASTINE FUMARATE] .
Return: 44
